Biological target: Alpha-glucosidase (Saccharomyces cerevisiae S288c, UniProt P53341+P38158+P07265)
Assay: Inhibition of Saccharomyces cerevisiae Alpha-glucosidase using p-NPG as substrate and measured after 10 mins
Format: protein assay
Outcome measure: IC50
Field: value (include unit after the number)

As a guide, the following entries are already answered.
Determine reported IC50 for "O=[N+]([O-])c1ccc(CSc2nnc(-c3cc4c([nH]c5ccccc54)c(-c4ccccc4)n3)o2)cc1" ; test system: Alpha-glucosidase (Saccharomyces cerevisiae S288c, UniProt P53341+P38158+P07265).
3.1 µM

// output IC50; input "N#Cc1cccc(CSc2nnc(-c3cc4c([nH]c5ccccc54)c(-c4ccccc4)n3)o2)c1" ; system Alpha-glucosidase (Saccharomyces cerevisiae S288c, UniProt P53341+P38158+P07265)
10.42 µM

Provide IC50, recorded with Alpha-glucosidase (Saccharomyces cerevisiae S288c, UniProt P53341+P38158+P07265), of "COC(=O)c1ccccc1CSc1nnc(-c2cc3c([nH]c4ccccc43)c(-c3ccccc3)n2)o1"
5.58 µM

# assay system Alpha-glucosidase (Saccharomyces cerevisiae S288c, UniProt P53341+P38158+P07265): give IC50 of "Clc1ccc(CSc2nnc(-c3cc4c([nH]c5ccccc54)c(-c4ccccc4)n3)o2)cc1Cl"
9.66 µM

Write down measured IC50 (Alpha-glucosidase (Saccharomyces cerevisiae S288c, UniProt P53341+P38158+P07265)) for this molecule. "Cc1ccc(CSc2nnc(-c3cc4c([nH]c5ccccc54)c(-c4ccccc4)n3)o2)cc1"
11.86 µM

Dear reader, for each entry below, please note its IC50.
1. Fc1ccc(CSc2nnc(-c3cc4c([nH]c5ccccc54)c(-c4ccccc4)n3)o2)cc1
2. FC(F)(F)Oc1ccccc1CSc1nnc(-c2cc3c([nH]c4ccccc43)c(-c3ccccc3)n2)o1
3. N#Cc1ccc(CSc2nnc(-c3cc4c([nH]c5ccccc54)c(-c4ccccc4)n3)o2)cc1
4. Brc1ccccc1CSc1nnc(-c2cc3c([nH]c4ccccc43)c(-c3ccccc3)n2)o1

1. 14.73 µM
2. 10.64 µM
3. 10.36 µM
4. 6.97 µM

* * *

Biological target: Alpha-glucosidase (Saccharomyces cerevisiae S288c, UniProt P53341+P38158+P07265)
Assay: Inhibition of Saccharomyces cerevisiae Alpha-glucosidase using p-NPG as substrate and measured after 10 mins
Type: protein assay
Outcome measure: IC50 (µM)
Answers are plain numbers, in µM.

Sample answers from the record:
Name the recorded IC50 of the item "c1ccc(-c2ccccc2CSc2nnc(-c3cc4c([nH]c5ccccc54)c(-c4ccccc4)n3)o2)cc1" in your answer.
3.07

Given "COC(=O)c1cccc(CSc2nnc(-c3cc4c([nH]c5ccccc54)c(-c4ccccc4)n3)o2)c1" , respond with its IC50.
4.93

Give the reported IC50 for this compound. "Clc1ccc(CSc2nnc(-c3cc4c([nH]c5ccccc54)c(-c4ccccc4)n3)o2)cc1"
5.31

Next:
Input "FC(F)(F)Oc1cccc(CSc2nnc(-c3cc4c([nH]c5ccccc54)c(-c4ccccc4)n3)o2)c1" , output reported IC50.
10.93

* * *

For each entry below, report its IC50 value.
Target: Alpha-glucosidase (Saccharomyces cerevisiae S288c, UniProt P53341+P38158+P07265)
Assay: Inhibition of Saccharomyces cerevisiae Alpha-glucosidase using p-NPG as substrate and measured after 10 mins
Type: protein assay
Answers are plain numbers, in µM.

Completed entries (count: 4):
Entry "N#Cc1ccccc1CSc1nnc(-c2cc3c([nH]c4ccccc43)c(-c3ccccc3)n2)o1" needs its IC50 filled in; supply it.
10.57

Please give the documented IC50 of "COC(=O)c1ccc(CSc2nnc(-c3cc4c([nH]c5ccccc54)c(-c4ccccc4)n3)o2)cc1"
4.6

Item "Fc1ccccc1CSc1nnc(-c2cc3c([nH]c4ccccc43)c(-c3ccccc3)n2)o1" : provide IC50
14.75

Specify IC50 for "c1ccc(CSc2nnc(-c3cc4c([nH]c5ccccc54)c(-c4ccccc4)n3)o2)cc1" and stop.
15.49

// each listed compound needs a value for IC50
1. Cc1ccccc1CSc1nnc(-c2cc3c([nH]c4ccccc43)c(-c3ccccc3)n2)o1
2. Fc1cccc(CSc2nnc(-c3cc4c([nH]c5ccccc54)c(-c4ccccc4)n3)o2)c1
3. O=[N+]([O-])c1ccccc1CSc1nnc(-c2cc3c([nH]c4ccccc43)c(-c3ccccc3)n2)o1

1: 3.33; 2: 15.41; 3: 9.57
